Where do these numbers come from? They come from patent US20110178027A1.

experimental system: T1, PC5/6 (UniProt Q92824 115-913)
T1 chain: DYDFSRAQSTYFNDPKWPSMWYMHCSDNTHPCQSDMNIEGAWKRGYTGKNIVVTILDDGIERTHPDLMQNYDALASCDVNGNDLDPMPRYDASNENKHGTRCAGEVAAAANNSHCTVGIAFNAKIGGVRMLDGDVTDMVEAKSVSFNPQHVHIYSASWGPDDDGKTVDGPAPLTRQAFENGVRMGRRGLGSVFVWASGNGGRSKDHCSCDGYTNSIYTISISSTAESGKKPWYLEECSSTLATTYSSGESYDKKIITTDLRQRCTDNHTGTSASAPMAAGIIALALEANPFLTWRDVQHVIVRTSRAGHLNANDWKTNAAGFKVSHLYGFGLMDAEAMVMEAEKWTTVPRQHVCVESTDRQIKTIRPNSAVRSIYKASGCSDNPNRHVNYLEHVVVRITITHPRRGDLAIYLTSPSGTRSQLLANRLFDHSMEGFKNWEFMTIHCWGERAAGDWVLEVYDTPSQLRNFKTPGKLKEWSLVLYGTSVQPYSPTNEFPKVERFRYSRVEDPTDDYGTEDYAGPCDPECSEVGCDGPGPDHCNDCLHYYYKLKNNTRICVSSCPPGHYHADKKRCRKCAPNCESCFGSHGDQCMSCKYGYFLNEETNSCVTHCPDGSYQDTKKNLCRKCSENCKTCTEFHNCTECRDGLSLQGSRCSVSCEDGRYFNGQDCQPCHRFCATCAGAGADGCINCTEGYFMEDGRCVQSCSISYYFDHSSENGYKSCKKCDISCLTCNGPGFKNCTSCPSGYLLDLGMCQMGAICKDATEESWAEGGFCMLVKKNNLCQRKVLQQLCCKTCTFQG
test summary: enzyme inhibition
No end group written: not given here.
quantity measured: Ki

binder: LRVKR-NH2 [LRVKR-NH2]
quantity measured: Ki
value observed: 360 nM
--
binder: RVKR-NH2 [RVKR-NH2]
quantity measured: Ki
value observed: 5570 nM
--
binder: LLLRVKR-NH2 [LLLRVKR-NH2]
quantity measured: Ki
value observed: 340 nM

Moving on to another binder below.
Ki lookup needed for LLRVKR-NH2 [LLRVKR-NH2] , thanks.
130 nM
